biological target: UniProtKB P08684; type: in vitro ADME; conditions: microsomes, 10 min
Sequence (P08684 whole entry): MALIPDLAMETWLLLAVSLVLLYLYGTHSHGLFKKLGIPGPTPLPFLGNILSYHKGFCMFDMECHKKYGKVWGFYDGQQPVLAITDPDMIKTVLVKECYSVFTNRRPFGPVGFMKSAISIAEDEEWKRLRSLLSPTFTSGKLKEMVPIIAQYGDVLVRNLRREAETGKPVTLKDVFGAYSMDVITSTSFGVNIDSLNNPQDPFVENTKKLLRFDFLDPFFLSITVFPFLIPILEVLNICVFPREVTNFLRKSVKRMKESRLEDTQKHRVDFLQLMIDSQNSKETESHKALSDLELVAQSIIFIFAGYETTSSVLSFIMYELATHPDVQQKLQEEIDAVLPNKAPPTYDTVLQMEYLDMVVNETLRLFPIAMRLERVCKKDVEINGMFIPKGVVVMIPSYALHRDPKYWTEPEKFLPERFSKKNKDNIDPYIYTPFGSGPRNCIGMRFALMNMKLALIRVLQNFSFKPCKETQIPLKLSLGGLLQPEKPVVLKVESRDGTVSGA
pIC50: −log10 of the molar value. Non-standard residues stand in square brackets, D forms with d. Residues, ends and D or L forms follow the SMILES beside them. *: point of attachment. Pyrrolidine3carbonyl(3S) = O=C([C@H]1CCNC1)*; dBta = N[C@H](Cc1csc2ccccc12)C(=O)O; X1 = N[C@H]1CCC[C@H]1C(=O)*; X2 = O=C(C12CNC[C@@H]1C2)*; Api = NC1(C(=O)O)CCNCC1; βAla = NCCC(=O)O
parameterMeasured: pIC50

Guide cases for pIC50, answers given:
NCCC(=O)N[C@H](Cc1csc2ccccc12)C(=O)N[C@H](Cc1c[nH]c2ccccc12)C(=O)N[C@@H](Cc1ccccc1)C(=O)NC1(C(N)=O)CCNCC1 [Compound 16] (H-[βAla][dBta][dW]F[Api]-NH2) | 4.70
NC(=O)C1(NC(=O)[C@H](Cc2ccccc2)NC(=O)[C@@H](Cc2c[nH]c3ccccc23)NC(=O)[C@@H](Cc2csc3ccccc23)NC(=O)[C@@H]2CCC[C@@H]2N)CCNCC1 [Compound 21] (X1-[dBta][dW]F[Api]-NH2) | < 4.30
NC(=O)[C@H](Cc1ccccc1)NC(=O)[C@@H](Cc1c[nH]c2ccccc12)NC(=O)[C@@H](Cc1csc2ccccc12)NC(=O)[C@@]12CNC[C@@H]1C2 | < 4.30
NC(=O)[C@H](Cc1ccccc1)NC(=O)[C@@H](Cc1c[nH]c2ccccc12)NC(=O)[C@@H](Cc1csc2ccccc12)NC(=O)[C@@H]1CCC[C@@H]1N | < 4.30
NC(=O)C1(NC(=O)[C@H](Cc2ccccc2)NC(=O)[C@@H](Cc2c[nH]c3ccccc23)NC(=O)[C@@H](Cc2csc3ccccc23)NC(=O)[C@H]2CCNC2)CCNCC1 [Compound 26] ({Pyrrolidine3carbonyl(3S)}-[dBta][dW]F[Api]-NH2) | < 4.30

Ask: Please give measured pIC50 of the following entry: NCC(=O)N[C@H](Cc1csc2ccccc12)C(=O)N[C@H](Cc1c[nH]c2ccccc12)C(=O)N[C@@H](Cc1ccccc1)C(=O)NC1(C(N)=O)CCNCC1 [Compound 11] (H-G[dBta][dW]F[Api]-NH2)
Result: 4.48

Ask: Name the recorded pIC50 of the compound listed here: NCCCC[C@@H](NC(=O)[C@H](Cc1ccccc1)NC(=O)[C@@H](Cc1c[nH]c2ccccc12)NC(=O)[C@@H](Cc1csc2ccccc12)NC(=O)[C@@H]1CCC[C@@H]1N)C(N)=O [Compound 51] (X1-[dBta][dW]F[dK]-NH2)
Result: < 4.30

Ask: Return pIC50 for the following compound: NCCCC[C@@H](NC(=O)[C@H](Cc1ccccc1)NC(=O)[C@@H](Cc1c[nH]c2ccccc12)NC(=O)[C@@H](Cc1csc2ccccc12)NC(=O)CCN)C(N)=O [Compound 46] (H-[βAla][dBta][dW]F[dK]-NH2)
Result: < 4.30

Ask: Write down pIC50 measured for item NC(=O)C1(NC(=O)[C@H](Cc2ccccc2)NC(=O)[C@@H](Cc2c[nH]c3ccccc23)NC(=O)[C@@H](Cc2csc3ccccc23)NC(=O)C23CNC[C@@H]2C3)CCNCC1 (stereo partly drawn) [Compound 30] (X2-[dBta][dW]F[Api]-NH2)
Result: < 4.30

====

target: GHSR-1a (Homo sapiens (Human), UniProt Q92847); test: Agonistic activity for GHSR-1a, FLIPR calcium assay; type: cell-based; settings: agonist activity assay, Flp In-CHO-GHSR Stable Pool cells, FLIPR calcium 6 kit; read-out: The activity (IC50) of polypeptide compounds for GHSR-1a
Sequence (Q92847 whole entry): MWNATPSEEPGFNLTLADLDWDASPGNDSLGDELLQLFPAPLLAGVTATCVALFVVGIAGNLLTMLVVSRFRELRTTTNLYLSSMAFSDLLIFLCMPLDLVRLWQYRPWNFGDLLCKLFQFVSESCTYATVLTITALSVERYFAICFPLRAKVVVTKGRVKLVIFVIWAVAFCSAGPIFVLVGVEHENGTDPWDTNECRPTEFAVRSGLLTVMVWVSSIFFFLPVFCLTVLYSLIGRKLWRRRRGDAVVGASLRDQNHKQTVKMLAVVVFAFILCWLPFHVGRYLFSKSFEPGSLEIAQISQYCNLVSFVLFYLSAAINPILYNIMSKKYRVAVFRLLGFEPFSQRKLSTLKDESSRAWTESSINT
Starred links: 1 amine or outer side, 2 acyl side, 3 side chain; linkers in the order of their positions; H or OH if unused. Non-standard residues stand in square brackets, D forms with d. Residues, ends and D or L forms follow the SMILES beside them. X6 = O=C(C1[C@H]2CC[C@H](C2)N1[*:1])[*:2]; dBta = N[C@H](Cc1csc2ccccc12)C(=O)O; Api = NC1(C(=O)O)CCNCC1; βAla = NCCC(=O)O
parameterMeasured: IC50 (nM)

NCCCC[C@@H](NC(=O)[C@H](Cc1ccccc1)NC(=O)[C@@H](Cc1c[nH]c2ccccc12)NC(=O)[C@@H](Cc1csc2ccccc12)NC(=O)CCN)C(N)=O [Compound 46] (H-[βAla][dBta][dW]F[dK]-NH2) | 2.8

[a] NC(=O)C1(NC(=O)[C@H](Cc2ccccc2)NC(=O)[C@@H](Cc2c[nH]c3ccccc23)NC(=O)[C@@H](Cc2csc3ccccc23)NC(=O)C2N[C@@H]3CC[C@H]2C3)CCNCC1 (stereo partly shown) [Compound 29] (H-[X6][dBta][dW]F[Api]-NH2)
[b] NCC(=O)N[C@H](Cc1csc2ccccc12)C(=O)N[C@H](Cc1c[nH]c2ccccc12)C(=O)N[C@@H](Cc1ccccc1)C(=O)NC1(C(N)=O)CCNCC1 [Compound 11] (H-G[dBta][dW]F[Api]-NH2)
Ask: Which entry shows the lesser value of IC50 here, a or b ? // output: label of the selected item
Result: a

====

biological target: UniProtKB Q92847; assay: Agonistic activity for GHSR-1a, FLIPR calcium assay; settings: agonist activity assay, Flp In-CHO-GHSR Stable Pool cells, FLIPR calcium 6 kit; read-out: The activity (IC50) of polypeptide compounds for GHSR-1a
Non-standard residues stand in square brackets, D forms with d. Residues, ends and D or L forms follow the SMILES beside them. *: point of attachment. dBta = N[C@H](Cc1csc2ccccc12)C(=O)O; Tle = CC(C)(C)[C@H](N)C(=O)O; dNle = CCCC[C@@H](N)C(=O)O; dAbu = CC[C@@H](N)C(=O)O; Api = NC1(C(=O)O)CCNCC1; X4 = O=C([C@H]1CNCCO1)*; βAla = NCCC(=O)O
parameterMeasured: IC50 (nM)

CC(C)(C)[C@H](N)C(=O)N[C@H](Cc1csc2ccccc12)C(=O)N[C@H](Cc1c[nH]c2ccccc12)C(=O)N[C@@H](Cc1ccccc1)C(=O)NC1(C(N)=O)CCNCC1 [Compound 18] (H-[Tle][dBta][dW]F[Api]-NH2) | 23.5
CCCC[C@@H](NC(=O)C1(NC(=O)[C@H](Cc2ccccc2)NC(=O)[C@@H](Cc2c[nH]c3ccccc23)NC(=O)[C@@H](Cc2csc3ccccc23)NC(=O)[C@H](N)CC)CCNCC1)C(=O)N[C@H](C)C(N)=O [Compound 84] (H-[dAbu][dBta][dW]F[Api][dNle][dA]-NH2) | 6.7

[I] NCCC(=O)N[C@H](Cc1csc2ccccc12)C(=O)N[C@H](Cc1c[nH]c2ccccc12)C(=O)N[C@@H](Cc1ccccc1)C(=O)NC1(C(N)=O)CCNCC1 [Compound 16] (H-[βAla][dBta][dW]F[Api]-NH2)
[II] NC(=O)C1(NC(=O)[C@H](Cc2ccccc2)NC(=O)[C@@H](Cc2c[nH]c3ccccc23)NC(=O)[C@@H](Cc2csc3ccccc23)NC(=O)[C@H]2CNCCO2)CCNCC1 [Compound 27] (X4-[dBta][dW]F[Api]-NH2)
Ask: Lower value for measured IC50? Options: I , II I would appreciate it if you answered with the label of your choice.
Result: I
(I: 0.7 nM, II: 32.8 nM)

====

biological target: GHSR-1a (Homo sapiens (Human), UniProt Q92847); test: Agonistic activity for GHSR-1a, FLIPR calcium assay; conditions: agonist activity assay, Flp In-CHO-GHSR Stable Pool cells, FLIPR calcium 6 kit; read-out: The activity (IC50) of polypeptide compounds for GHSR-1a
Non-standard residues stand in square brackets, D forms with d. Residues, ends and D or L forms follow the SMILES beside them. *: point of attachment. dBta = N[C@H](Cc1csc2ccccc12)C(=O)O; Api = NC1(C(=O)O)CCNCC1; X3 = NCC1(C(=O)*)CCC1
parameterMeasured: IC50 (nM)

[P] NCCCC[C@@H](NC(=O)[C@H](Cc1ccccc1)NC(=O)[C@@H](Cc1c[nH]c2ccccc12)NC(=O)[C@@H](Cc1csc2ccccc12)NC(=O)[C@@H]1CCCN1)C(N)=O [Compound 45] (H-P[dBta][dW]F[dK]-NH2)
[Q] NCC1(C(=O)N[C@H](Cc2csc3ccccc23)C(=O)N[C@H](Cc2c[nH]c3ccccc23)C(=O)N[C@@H](Cc2ccccc2)C(=O)NC2(C(N)=O)CCNCC2)CCC1 [Compound 22] (X3-[dBta][dW]F[Api]-NH2)
Ask: Dear colleague, could you let me know whether P or Q has the lower recorded IC50? Thanks. Use the label to indicate which entry you chose.
Result: Q

====

molecular target: GHSR-1a (Homo sapiens (Human), UniProt Q92847); experiment: Agonistic activity for GHSR-1a, FLIPR calcium assay; conditions: agonist activity assay, Flp In-CHO-GHSR Stable Pool cells, FLIPR calcium 6 kit; read-out: The activity (IC50) of polypeptide compounds for GHSR-1a
pIC50: −log10 of the molar value. Non-standard residues stand in square brackets, D forms with d. Residues, ends and D or L forms follow the SMILES beside them. *: point of attachment. dBta = N[C@H](Cc1csc2ccccc12)C(=O)O; Ac4c(3-oxa) = NC1(C(=O)O)COC1; Api = NC1(C(=O)O)CCNCC1; X4 = O=C([C@H]1CNCCO1)*; dAze = O=C(O)[C@H]1CCN1
parameterMeasured: pIC50

NCCCC[C@@H](NC(=O)[C@H](Cc1ccccc1)NC(=O)[C@@H](Cc1c[nH]c2ccccc12)NC(=O)[C@@H](Cc1csc2ccccc12)NC(=O)[C@H]1CNCCO1)C(N)=O [Compound 57] (X4-[dBta][dW]F[dK]-NH2) | 7.87
NCCCC[C@@H](NC(=O)[C@H](Cc1ccccc1)NC(=O)[C@@H](Cc1c[nH]c2ccccc12)NC(=O)[C@@H](Cc1csc2ccccc12)NC(=O)C1(N)COC1)C(N)=O [Compound 54] (H-[Ac4c(3-oxa)][dBta][dW]F[dK]-NH2) | 7.86
CC(C)C[C@@H](N)C(=O)N[C@H](Cc1csc2ccccc12)C(=O)N[C@H](Cc1c[nH]c2ccccc12)C(=O)N[C@@H](Cc1ccccc1)C(=O)NC1(C(N)=O)CCNCC1 [Compound 14] (H-[dL][dBta][dW]F[Api]-NH2) | 7.48
NC(=O)[C@H](Cc1ccccc1)NC(=O)[C@@H](Cc1c[nH]c2ccccc12)NC(=O)[C@@H](Cc1csc2ccccc12)NC(=O)CC12CC3CC(CC(N)(C3)C1)C2 | 7.11
NC(=O)[C@H](Cc1ccccc1)NC(=O)[C@@H](Cc1c[nH]c2ccccc12)NC(=O)[C@@H](Cc1csc2ccccc12)NC(=O)[C@H]1CCN1 [Compound 75] (H-[dAze][dBta][dW]F-NH2) | 7.91

[I] N=C(N)NCCC[C@@H](N)C(=O)N[C@H](Cc1csc2ccccc12)C(=O)N[C@H](Cc1c[nH]c2ccccc12)C(=O)N[C@@H](Cc1ccccc1)C(=O)N[C@H](CCCCN)C(N)=O [Compound 39] (H-[dR][dBta][dW]F[dK]-NH2)
[II] NC(=O)[C@H](Cc1ccccc1)NC(=O)[C@@H](Cc1c[nH]c2ccccc12)NC(=O)[C@@H](Cc1csc2ccccc12)NC(=O)[C@@H]1CCC[C@@H]1N
Ask: Would you kindly point out which of I and II has the smaller pIC50 figure? Return value: the label identifying the chosen record.
Result: I
